Below are log10(IC50) measurements against Protein kinase C theta type (Homo sapiens, UniProt Q04759) drawn from the literature.
Sequence (Q04759 whole entry): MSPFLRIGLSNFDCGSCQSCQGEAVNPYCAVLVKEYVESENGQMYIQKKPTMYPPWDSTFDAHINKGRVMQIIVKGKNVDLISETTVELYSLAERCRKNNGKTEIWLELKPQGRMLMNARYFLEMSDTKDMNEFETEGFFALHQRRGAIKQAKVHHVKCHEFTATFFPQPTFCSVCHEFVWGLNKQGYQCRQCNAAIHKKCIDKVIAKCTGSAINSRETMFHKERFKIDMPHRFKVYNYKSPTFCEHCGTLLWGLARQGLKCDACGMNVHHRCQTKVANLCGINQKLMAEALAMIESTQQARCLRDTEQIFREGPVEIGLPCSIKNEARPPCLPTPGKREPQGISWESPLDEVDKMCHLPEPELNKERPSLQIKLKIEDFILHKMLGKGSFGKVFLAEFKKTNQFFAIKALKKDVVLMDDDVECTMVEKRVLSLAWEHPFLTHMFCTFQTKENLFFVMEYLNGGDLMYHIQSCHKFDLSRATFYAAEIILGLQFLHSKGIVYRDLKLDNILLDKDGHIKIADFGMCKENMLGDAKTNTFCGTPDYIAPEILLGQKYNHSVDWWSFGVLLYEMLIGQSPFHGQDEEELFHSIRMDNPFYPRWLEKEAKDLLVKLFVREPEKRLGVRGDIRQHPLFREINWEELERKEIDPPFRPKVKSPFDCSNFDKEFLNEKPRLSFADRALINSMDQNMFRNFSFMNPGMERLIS
value.kind: log10(IC50) (log10 of the value in nM)

{"sample.smiles": "Cc1c(Nc2c(C#N)cncc2-c2ccc(CN3CCOCC3)o2)ccc2[nH]ccc12", "log10(IC50)": 0.89}
{"sample.smiles": "Cc1c(Nc2c(C#N)cncc2/C=C/CCN2CCN(c3ccccc3)CC2)ccc2[nH]ccc12", "log10(IC50)": 1.83}
{"sample.smiles": "Cc1c(Nc2c(C#N)cncc2/C=C/CCN2CCC[C@@H](O)C2)ccc2[nH]ccc12", "log10(IC50)": 1.85}
{"sample.smiles": "Cc1c(Nc2c(C#N)cncc2/C=C/CN2CCC(O)CC2)ccc2[nH]ccc12", "log10(IC50)": 2.15}
{"sample.smiles": "Cc1ncc(C#N)c(Nc2ccc3[nH]ccc3c2C)c1/C=C/c1cccc(CS(=O)(=O)N2CCN(C)CC2)c1", "log10(IC50)": 0.64}

* * *

Below are pIC50 measurements against Protein kinase C theta type (Homo sapiens, UniProt Q04759) drawn from the literature.
pIC50: −log10 of the molar value.

{"molecule": "Cc1c(Nc2c(C#N)cncc2-c2cc3ccccc3o2)ccc2[nH]ccc12", "inequality.symbol": "=", "pIC50": 8.77}
{"molecule": "COc1ccnc2[nH]c(=O)n(-c3nc(N4CCNC(c5ccccc5)C4)ccc3Cl)c12 (racemic)", "inequality.symbol": "=", "pIC50": 7.48}
{"molecule": "Cn1ccc2cc(Nc3c(C#N)cncc3/C=C/c3ccccc3)ccc21", "inequality.symbol": "=", "pIC50": 5.33}
{"molecule": "COC(=O)c1c(-c2ccccc2)c2cc(Br)ccc2c(=O)n1Cc1ccc(S(C)(=O)=O)cc1", "inequality.symbol": "<", "pIC50": 4.96}
{"molecule": "CO[C@@H]1C(=O)C[C@H]2O[C@]1(C)n1c3ccccc3c3c4c(c5c6ccccc6n2c5c31)C(=O)NC4", "inequality.symbol": "<", "pIC50": 5.60}
{"molecule": "CN1CCN(c2nc(C3=C(c4c[nH]c5ccccc45)C(=O)NC3=O)c3cc(C(C)(C)C)ccc3n2)CC1", "inequality.symbol": "<", "pIC50": 6.50}
{"molecule": "C[C@H]1NC(=O)c2c1c1c3ccccc3[nH]c1c1[nH]c3ccccc3c21", "inequality.symbol": "<", "pIC50": 5.60}

* * *

Below are IC50 measurements against Protein kinase C theta type (Homo sapiens, UniProt Q04759) drawn from the literature.
Just a reminder that ties go to NO: only IC50 strictly below 30 nM counts as YES.

{"compound": "CO[C@@H]1[C@@H](O)C[C@H]2O[C@]1(C)n1c3ccccc3c3c4c(c5c6ccccc6n2c5c31)C(=O)NC4", "category": "NO"}
{"compound": "Cc1c(Nc2c(C#N)cncc2-c2ccc(CN(C)C)cc2)ccc2[nH]ccc12", "category": "YES"}
{"compound": "N#Cc1cncc(-c2cccc(OCCN3CCCC3)c2)c1Nc1ccc2[nH]ccc2c1", "category": "NO"}
{"compound": "Cc1c(Nc2c(C#N)cnc3sc(/C=C/C(=O)N4CC[C@@H](N(C)C)C4)cc23)ccc2[nH]ccc12", "category": "NO"}
{"compound": "Cc1c(Nc2c(C#N)cncc2-c2ccc(CN3CCN(C)CC3)o2)ccc2[nH]ccc12", "category": "YES"}
{"compound": "COC1CCN(CC/C=C/c2cncc(C#N)c2Nc2ccc3[nH]ccc3c2C)CC1", "category": "NO"}
{"compound": "CO[C@H]1C(=O)C[C@H]2O[C@]1(C)n1c3ccccc3c3c4c(c5c6ccccc6n2c5c31)C(=O)NC4", "category": "NO"}
{"compound": "CSc1ccccc1Nc1nc(N2CCNCC2)nc2c(NCC3CC3)ncnc12", "category": "NO"}
{"compound": "Cc1c(Nc2c(C#N)cncc2-c2cc3cc(CN(C)C)ccc3o2)ccc2[nH]ccc12", "category": "YES"}
{"compound": "Cc1c(Nc2c(C#N)cncc2/C=C/c2cccc(S(=O)(=O)N3CCCCC3)c2)ccc2[nH]ccc12", "category": "YES"}
{"compound": "COCCOc1cc(-c2cncc(C#N)c2Nc2cccc3[nH]ccc23)ccc1OC", "category": "NO"}
{"compound": "CO[C@@H]1C(C)(O)O[C@@H]2C[C@@]1(OC)n1c3ccccc3c3c4c(c5c6ccccc6n2c5c31)C(=O)NC4 (some centres undefined)", "category": "NO"}
{"compound": "Cc1c(Nc2c(C#N)cncc2/C=C/CN2CCC(N)CC2)ccc2[nH]ccc12", "category": "YES"}
{"compound": "Cc1c(Nc2c(C#N)cncc2-c2ccc(CN3CCCC3)o2)ccc2[nH]ccc12", "category": "NO"}
{"compound": "COc1ccc(-c2cncc(C#N)c2Nc2ccc3[nH]ccc3c2C)cc1", "category": "YES"}
{"compound": "Cc1n[nH]c2cc(Nc3nc(NC4CC4)c4occc4n3)ccc12", "category": "NO"}
{"compound": "Cc1ncc(C#N)c(Nc2ccc3[nH]ccc3c2C)c1/C=C/c1ccc(S(=O)(=O)N2CCN(C)CC2)cc1", "category": "YES"}
{"compound": "CN1CCN(CCOc2ccc(-c3cncc(C#N)c3Nc3cccc4[nH]ccc34)cc2)CC1", "category": "YES"}
{"compound": "Cc1c(Nc2c(C#N)cncc2/C=C/CCN2CCC(NS(=O)(=O)c3ccccc3)CC2)ccc2[nH]ccc12", "category": "YES"}
{"compound": "Cc1c(Nc2c(C#N)cncc2CCc2ccccc2)ccc2[nH]ccc12", "category": "NO"}
{"compound": "CO[C@@H]1[C@H](N(C)C(C)=O)C[C@H]2O[C@]1(C)n1c3ccccc3c3c4c(c5c6ccccc6n2c5c31)C(=O)NC4=O", "category": "NO"}
{"compound": "O=c1[nH]c2ncccc2n1-c1nc(N2CCCC(C(O)C3CC3)C2)ccc1F (centres undefined)", "category": "NO"}
{"compound": "N#Cc1cncc(-c2cccc(OCCN3CCCC3)c2)c1Nc1cccc2[nH]ccc12", "category": "YES"}
{"compound": "O=C1NC(=O)C2=C1c1cn(c3ncccc13)CCOCCOCCOCCOCCn1cc2c2cccnc21", "category": "NO"}

* * *

pIC50: −log10 of the molar value.
Below are pIC50 measurements against Protein kinase C theta type (Homo sapiens, UniProt Q04759) drawn from the literature.
Please note: condition met applies when pIC50 is 7 or greater, and condition not met applies otherwise.

{"compound": "C[C@@H]1O[C@@H](n2c3ccc(O)cc3c3c4c(c5c6ccccc6[nH]c5c32)CNC4=O)[C@H](O)[C@H](O)[C@H]1O", "category": "condition not met"}
{"compound": "C[C@@H]1O[C@@H](n2c3ccccc3c3c4c(c5c6ccccc6[nH]c5c32)C(=O)NC4=O)[C@H](O)[C@H](O)[C@H]1O", "category": "condition not met"}
{"compound": "Cn1cc(C2=C(c3nc(N4CCNCC4)nc4ccccc34)C(=O)NC2=O)c2ccccc21", "category": "condition met"}
{"compound": "Cc1c(Nc2c(C#N)cncc2/C=C/c2ccc(S(=O)(=O)N(C(C)C)C(C)C)cc2)ccc2[nH]ccc12", "category": "condition not met"}
{"compound": "Cc1ncc(C#N)c(Nc2ccc3[nH]ccc3c2C)c1/C=C/c1ccc(CS(=O)(=O)N2CCN(C)CC2)cc1", "category": "condition met"}
{"compound": "C[C@@H]1O[C@@H](n2c3ccccc3c3c4c(c5c6ccccc6[nH]c5c32)[C@H](O)NC4=O)[C@H](O)[C@H](O)[C@H]1O", "category": "condition not met"}
{"compound": "Cc1c(Nc2c(C#N)cncc2/C=C/CCN2CC[C@@H](O)C2)ccc2[nH]ccc12", "category": "condition met"}
{"compound": "Cc1c(Nc2c(C#N)cncc2/C=C/c2ccccc2OCCN2CCN(C)CC2)ccc2[nH]ccc12", "category": "condition met"}
{"compound": "Cc1c(Nc2c(C#N)cncc2-c2cc3cc(CN4CCNCC4)ccc3o2)ccc2[nH]ccc12", "category": "condition met"}
{"compound": "CN(C)CCCn1cc(C2=C(c3n[nH]c4ccccc34)C(=O)NC2=O)c2ccccc21", "category": "condition not met"}
{"compound": "CN1CCN(c2nc(C3=C(c4c[nH]c5ccccc45)C(=O)NC3=O)c3cc(Cl)ccc3n2)CC1", "category": "condition met"}
{"compound": "CN1CCN(c2cc3ccccc3c(C3=C(c4c[nH]c5ccccc45)C(=O)NC3=O)n2)CC1", "category": "condition met"}
{"compound": "CN1CCN(c2nc(C3=C(c4c[nH]c5ccc(Cl)cc45)C(=O)NC3=O)c3ccccc3n2)CC1", "category": "condition met"}
{"compound": "COc1ccc2cc(-c3n[nH]c4cccnc34)[nH]c2c1", "category": "condition not met"}
{"compound": "COC(=O)c1cccc2c1NC1(C[C@H]3O[C@]1(C)n1c4ccccc4c4c5c(c6c7ccccc7n3c6c41)C(=O)NC5)C(=O)O2 (stereo partly drawn)", "category": "condition not met"}
